meta.source: patent US20190144550A1

target: wild-type EGFR expressed on cells (human), P00533; assay: flow cytometry, A431 cells; details: remark: other sources report otherwise
MFI overview
Write the number on its own, no unit after it.

Query: Fill in the blank: the reported MFI of 20G5 (antibody, V domains shown) VH: EVQLVESGGDLVKPGGSLRLSCAASGFTFTNAWMSWVRQAPGKGLEWVGRIKSKIDGGTTDYAAPVKGRFIISRDDSKNTLSLQMNSLKTEDTAMYYCTTAPGGPFDYWGQGSLVTVSS VL: DIVLTQSPLSLPVTPGEPASISCRSSQSLLYSDRRNYLDWFLQKPGQSPHLLIYLGSYRASGVPDRFSGSGSGTDFTLKISRVEAEDVGVYYCMQALQIPITFGQGTRLEIK is ____.
Result: 391

Query: Any idea what its MFI is? The binder is 46E10 (antibody, V domains shown) VH: QVTLKESGPVLVKPTETLTLTCTVSGFSLSNARMGVSWIRQPPGKALEWLAHIFSTDEKSIRRSLRSRLTLSKDTSKSQVVLIMTNMDPVDTATYYCARDSSNYEGYFDYWGQGTLVTVSS VL: EVVMTQSPPNLSVSPGERATLSCRASQSVTSNFAWYQQRPGQSPRLLLYGASTRATGVPGRFSGSGSGTENILTISSLQSEDFAVYFCQQYKDWPFTFGPGSKVDIK
Result: 560

Query: Consider the binder shown here: 21E7 (antibody, V domains shown) VH: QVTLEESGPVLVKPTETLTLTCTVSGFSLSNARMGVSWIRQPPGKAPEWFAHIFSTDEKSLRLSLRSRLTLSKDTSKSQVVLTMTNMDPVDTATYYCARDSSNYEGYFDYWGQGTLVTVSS VL: DVVLTQSPATLSVSPGERATLSCRASQSVNSNLAWYQQNPGQAPRLLIFGSSTRATGIPASFSGSGSGTEFTLTINSLQSEHSAVYYCQQYNDWPFTFGPGTKVDIK What is its recorded MFI?
Result: 603

Query: Any idea what its MFI is? The binder is 21E11 (antibody, V domains shown) VH: QVTLKESGPVLVKPTETLTLTCTVSGFSLSNVRMGVSWIRQPPGKALEWFAHIFSSDEKSIRRSLRSRLTLSKDTSKSQVVLTMTNMDPVDTATYYCARDSSNYEGYFDFWGQGTLVTVSSN VL: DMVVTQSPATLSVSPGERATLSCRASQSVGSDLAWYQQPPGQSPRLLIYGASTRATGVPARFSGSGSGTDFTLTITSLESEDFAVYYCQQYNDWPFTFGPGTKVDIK
Result: 555
